Data credit: patent US20260137703A1

IC50 values by entry
molecular target: Phospho-EGFR (Tyr1068) in A431 cells (Homo sapiens, UniProt P00533); construct: endogenous in cells; test: HTRF pEGFR/total EGFR in A431 cells with EGF stimulation; conditions: ratio pEGFR/total EGFR, compound 2.5 hours then 100 ng/ml EGF 30 mins
Sequence (P00533 25-1210): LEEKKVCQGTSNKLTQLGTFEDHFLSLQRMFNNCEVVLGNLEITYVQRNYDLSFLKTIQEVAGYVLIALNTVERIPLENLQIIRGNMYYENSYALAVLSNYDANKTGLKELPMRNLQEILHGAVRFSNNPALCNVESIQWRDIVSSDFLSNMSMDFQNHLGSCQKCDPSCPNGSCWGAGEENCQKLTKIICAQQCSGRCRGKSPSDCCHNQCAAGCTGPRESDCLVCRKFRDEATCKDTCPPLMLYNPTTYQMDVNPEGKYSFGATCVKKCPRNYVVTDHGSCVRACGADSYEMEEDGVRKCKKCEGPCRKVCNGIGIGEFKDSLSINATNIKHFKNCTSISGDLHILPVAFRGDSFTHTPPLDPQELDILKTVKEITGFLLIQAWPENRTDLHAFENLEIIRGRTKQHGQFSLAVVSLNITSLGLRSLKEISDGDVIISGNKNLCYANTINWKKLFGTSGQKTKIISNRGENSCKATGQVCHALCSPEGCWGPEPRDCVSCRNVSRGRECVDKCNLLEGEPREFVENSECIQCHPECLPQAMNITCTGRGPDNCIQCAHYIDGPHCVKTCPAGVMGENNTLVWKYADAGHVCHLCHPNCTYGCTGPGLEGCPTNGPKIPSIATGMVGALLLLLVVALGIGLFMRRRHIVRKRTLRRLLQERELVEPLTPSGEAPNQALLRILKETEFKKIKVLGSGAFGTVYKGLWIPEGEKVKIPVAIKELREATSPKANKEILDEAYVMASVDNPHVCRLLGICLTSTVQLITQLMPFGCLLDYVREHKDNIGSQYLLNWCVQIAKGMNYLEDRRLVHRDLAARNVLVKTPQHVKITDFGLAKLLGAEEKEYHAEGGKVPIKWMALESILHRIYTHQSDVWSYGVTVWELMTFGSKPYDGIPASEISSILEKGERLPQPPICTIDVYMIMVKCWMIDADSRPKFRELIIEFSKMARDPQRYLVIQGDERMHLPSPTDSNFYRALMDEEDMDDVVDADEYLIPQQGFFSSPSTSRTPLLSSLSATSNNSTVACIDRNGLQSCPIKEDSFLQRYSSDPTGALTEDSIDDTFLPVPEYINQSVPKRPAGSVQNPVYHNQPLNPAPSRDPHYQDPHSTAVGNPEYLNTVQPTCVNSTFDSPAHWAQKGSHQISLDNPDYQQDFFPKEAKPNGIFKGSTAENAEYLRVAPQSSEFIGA

Ask: Can you share its IC50? I mean this compound: C#Cc1cc(=O)n(-c2ccccc2)c2nc(Nc3ccc4c(c3)CCNCC4)ncc12 [Example 26]
Reply: 1 to 3 µM

Ask: Can you share its IC50? I mean this compound: C#Cc1cc(=O)n(C[C@@H]2CCC(=O)N2)c2nc(Nc3ccc(N4CCN(C)CC4)cc3)ncc12 [Example 71]
Reply: > 3 µM

Ask: Can you share its IC50? I mean this compound: C#Cc1c(C)c(=O)n2c3nc(ncc13)Nc1cccc(c1)OCCCC2 [Example 191]
Reply: > 3 µM

Ask: Can you share its IC50? I mean this compound: C#Cc1cc(=O)n(C2CCCC2)c2nc(Nc3cccc(CN4CCC(CS(C)(=O)=O)C4)c3)ncc12 (centres unmarked) [Example 182]
Reply: > 3 µM

Ask: Can you share its IC50? I mean this compound: C#Cc1cc(=O)n(CC2CCOC2)c2nc(Nc3ccc(N4CCN(C)CC4)cc3)ncc12 (centres unmarked) [Example 70]
Reply: > 3 µM

----------
target: Phospho-EGFR (Tyr1068) in A431 cells (Homo sapiens); construct: endogenous in cells; experiment: HTRF pEGFR/total EGFR in A431 cells with EGF stimulation; conditions: ratio pEGFR/total EGFR, compound 2.5 hours then 100 ng/ml EGF 30 mins
Measured metric: IC50

Worked cases, IC50 given:
                                   compound  measured_metric       result
0  C#Cc1cc(=O)n2c3nc(ncc13)Nc1ccc(N3CCN(C)CC3)c(c1)CN(C)C(=O)CC2 [Example 223]             IC50    1 to 3 µM
1  C#Cc1cc(=O)n2c3nc(ncc13)Nc1ccc(N3CCN(C)CC3)c(c1)OC/C=C\C2 [Example 188]             IC50  0.5 to 1 µM
2  C#Cc1cc(=O)n2c3nc(ncc13)Nc1ccc(N3CCN(C)CC3)c(c1)NCCCC2 [Example 198]             IC50       > 3 µM

Ask: Can you share its IC50? I mean this compound: C#Cc1cc(=O)n(C)c2nc(Nc3ccc(N4CCN(C)CC4)c(OCCc4ccnn4C)c3)ncc12 [Example 220]
Reply: 1 to 3 µM

Ask: Can you share its IC50? I mean this compound: C#Cc1c(C)c(=O)n(Cc2cnoc2)c2nc(Nc3ccc(N4CCN(C)CC4)cc3)ncc12 [Example 175]
Reply: > 3 µM

Ask: Can you share its IC50? I mean this compound: C#Cc1cc(=O)n(C2CCOCC2)c2nc(Nc3ccc(N4CCN(C)CC4)cc3)ncc12 [Example 69]
Reply: > 3 µM

Ask: Can you share its IC50? I mean this compound: C#Cc1cc(=O)n(-c2ccc([N+](=O)[O-])cc2)c2nc(Nc3ccccc3OC)ncc12 [Example 60]
Reply: > 3 µM

Ask: Can you share its IC50? I mean this compound: C#Cc1cc(=O)n(-c2ccc(NC(=O)CC)cc2)c2nc(Nc3ccccc3OC)ncc12 [Example 65]
Reply: > 3 µM

----------
Molecular target: Phospho-EGFR (Tyr1068) in H1975 cells (Homo sapiens, UniProt P00533, L858R/T790M)
Construct: host or cells: H1975
Sequence (P00533 25-1210 T790M/L858R): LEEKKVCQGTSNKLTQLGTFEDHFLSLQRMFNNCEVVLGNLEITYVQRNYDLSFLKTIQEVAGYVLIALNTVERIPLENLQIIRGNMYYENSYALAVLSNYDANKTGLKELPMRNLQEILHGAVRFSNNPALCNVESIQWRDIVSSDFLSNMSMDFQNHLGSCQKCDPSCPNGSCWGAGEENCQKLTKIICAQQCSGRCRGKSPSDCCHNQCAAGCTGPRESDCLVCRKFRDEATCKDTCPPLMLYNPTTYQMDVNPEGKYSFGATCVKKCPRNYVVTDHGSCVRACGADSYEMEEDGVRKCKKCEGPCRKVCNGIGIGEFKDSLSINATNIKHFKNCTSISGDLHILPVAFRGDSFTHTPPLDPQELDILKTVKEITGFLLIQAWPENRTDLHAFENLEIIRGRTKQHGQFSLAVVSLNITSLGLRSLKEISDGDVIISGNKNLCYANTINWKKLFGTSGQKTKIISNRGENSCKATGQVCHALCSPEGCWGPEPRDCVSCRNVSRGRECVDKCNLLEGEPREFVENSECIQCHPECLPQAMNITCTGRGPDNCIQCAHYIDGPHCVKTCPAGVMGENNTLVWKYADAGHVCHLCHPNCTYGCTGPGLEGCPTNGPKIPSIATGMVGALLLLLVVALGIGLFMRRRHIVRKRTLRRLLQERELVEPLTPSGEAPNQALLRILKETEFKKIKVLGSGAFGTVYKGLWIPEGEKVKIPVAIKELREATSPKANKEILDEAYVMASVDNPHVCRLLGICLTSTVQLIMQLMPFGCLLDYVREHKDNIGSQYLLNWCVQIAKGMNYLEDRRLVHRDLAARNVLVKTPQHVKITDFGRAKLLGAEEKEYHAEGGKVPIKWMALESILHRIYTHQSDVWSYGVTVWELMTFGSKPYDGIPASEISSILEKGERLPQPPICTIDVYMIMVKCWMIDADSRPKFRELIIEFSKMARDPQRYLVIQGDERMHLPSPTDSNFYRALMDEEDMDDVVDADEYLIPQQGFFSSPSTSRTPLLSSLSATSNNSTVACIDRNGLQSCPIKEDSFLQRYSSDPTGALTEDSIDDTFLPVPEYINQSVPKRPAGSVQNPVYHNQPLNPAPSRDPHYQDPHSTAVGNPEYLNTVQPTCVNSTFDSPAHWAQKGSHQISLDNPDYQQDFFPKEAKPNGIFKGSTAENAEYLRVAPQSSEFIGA
Experiment: HTRF pEGFR/total EGFR in H1975 cells
Assay type: cell-based
Conditions: ratio pEGFR/total EGFR, compound 3 hours
Procedure: H1975 cells (ATCC CRL-5908) were plated at 20,000 cells per well in 96 well plates and placed at 37° C. 5% CO2. Once adhered (after 24 h) cells were treated with compounds dissolved in DMSO at a final concentration of 0.1% DMSO in media. Compounds were diluted in media then added to cells for 3 hours in duplicate. […] Cells were lysed on a plate shaker (2000 rpm) for 30 minutes at room temperature. pEGFR expression was monitored using the Cisbio Phospho-EGFR (Tyri068) cellular kit (64EG1PEH). […]
Where a name gives a salt, the structure may show the parent alone.
Measured metric: IC50

Worked cases, IC50 given:
>>> df
                                   compound           result
0  C#Cc1cc(=O)n2c3nc(ncc13)Nc1ccc(N3CCN(C)CC3)c(c1)NCCCC2 [Example 198]   500 to 1000 nM
1  C#Cc1cc(=O)n(C)c2nc(Nc3ccc(N4CCN(C)CC4)c(S(=O)(=O)NCC4CCCC4)c3)ncc12 [Example 218]  1000 to 3000 nM
2  C#Cc1cc(=O)n(C)c2nc(Nc3cc(-c4cnn(C)c4)c(N4CCOCC4)cc3OC)ncc12 [Example 44]   500 to 1000 nM
3  C#Cc1cc(=O)n2c3nc(ncc13)Nc1cccc(c1)OC[C@H]1CC[C@H](C1)C2 [Example 192]   500 to 1000 nM
4  C#Cc1cc(=O)n([C@@H]2CCCN(C(=O)CC)C2)c2nc(Nc3ccc(N(C)CCN(C)C)cc3)ncc12 [Example 77, trifluoroacetic acid salt]        > 3000 nM
5  C#Cc1c(-c2c(Cl)cccc2Cl)c(=O)n(C)c2nc(Nc3cccc(CO)c3)ncc12 [Example 125]        > 3000 nM

Now examine the next entry.
Ask: Can you share its IC50? I mean this compound: C#Cc1cc(=O)n2c3nc(ncc13)Nc1ccc(N3CCN(C)CC3)c(c1)OCCC[C@H]2C [Example 239]
Reply: < 500 nM

----------
molecular target: Phospho-EGFR (Tyr1068) in H1975 C797S cells (CRISPR-edited EGFR C797S) (Homo sapiens, UniProt P00533, C797S/L858R/T790M); assay: HTRF pEGFR/total EGFR in H1975 C797S cells; conditions: ratio pEGFR/total EGFR, compound 3 hours
Sequence (P00533 25-1210 T790M/C797S/L858R): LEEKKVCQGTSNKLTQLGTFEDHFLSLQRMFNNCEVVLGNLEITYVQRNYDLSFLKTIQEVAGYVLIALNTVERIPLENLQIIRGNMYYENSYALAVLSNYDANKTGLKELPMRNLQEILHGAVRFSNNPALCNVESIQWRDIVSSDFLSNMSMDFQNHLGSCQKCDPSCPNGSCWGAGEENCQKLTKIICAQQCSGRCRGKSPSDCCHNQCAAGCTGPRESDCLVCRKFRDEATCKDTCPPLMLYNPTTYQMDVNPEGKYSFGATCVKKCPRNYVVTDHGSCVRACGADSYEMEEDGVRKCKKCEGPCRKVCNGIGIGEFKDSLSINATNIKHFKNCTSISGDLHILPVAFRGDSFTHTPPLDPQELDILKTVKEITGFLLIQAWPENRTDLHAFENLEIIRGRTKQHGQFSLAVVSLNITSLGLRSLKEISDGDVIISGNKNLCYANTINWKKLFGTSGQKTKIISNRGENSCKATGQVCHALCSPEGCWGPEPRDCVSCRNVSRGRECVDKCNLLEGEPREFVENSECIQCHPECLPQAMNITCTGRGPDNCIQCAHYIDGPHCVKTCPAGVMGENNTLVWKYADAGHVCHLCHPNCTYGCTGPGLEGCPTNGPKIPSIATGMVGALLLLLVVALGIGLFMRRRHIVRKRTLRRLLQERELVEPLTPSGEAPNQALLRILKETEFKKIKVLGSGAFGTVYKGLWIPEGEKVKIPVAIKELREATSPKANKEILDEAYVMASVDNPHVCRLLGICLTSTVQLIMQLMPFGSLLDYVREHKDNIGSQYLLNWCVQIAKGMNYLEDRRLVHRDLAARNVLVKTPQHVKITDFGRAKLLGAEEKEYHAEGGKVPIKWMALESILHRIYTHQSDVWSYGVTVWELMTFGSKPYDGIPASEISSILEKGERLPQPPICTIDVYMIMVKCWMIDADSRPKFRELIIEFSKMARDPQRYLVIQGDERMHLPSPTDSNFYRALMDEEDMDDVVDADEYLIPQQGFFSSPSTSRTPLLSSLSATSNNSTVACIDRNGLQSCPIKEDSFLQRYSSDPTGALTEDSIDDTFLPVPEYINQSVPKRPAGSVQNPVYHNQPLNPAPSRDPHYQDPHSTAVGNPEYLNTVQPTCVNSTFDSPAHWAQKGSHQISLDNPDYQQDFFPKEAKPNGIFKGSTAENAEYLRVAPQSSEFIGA
IC50 values by entry

Worked cases, IC50 given:
>>> print(df.to_string())
                                   compound  measured_metric           result
0  C#Cc1c(C)c(=O)n2c3nc(ncc13)Nc1cccc(c1)OCCCC2 [Example 191]             IC50        > 3000 nM
1  C#Cc1c(C)c(=O)n(Cc2ccno2)c2nc(Nc3ccc(N4CCN(C)CC4)cc3)ncc12 [Example 113]             IC50  1000 to 3000 nM

Ask: Can you share its IC50? I mean this compound: C#Cc1cc(=O)n2c3nc(ncc13)Nc1ccc(N3CCN(C)CC3)c(c1)COCCCC2 [Example 231]
Reply: < 500 nM

Ask: Can you share its IC50? I mean this compound: C#Cc1c(C)c(=O)n2c3nc(ncc13)Nc1cccc(c1)OC/C=C\C2 [Example 190]
Reply: 1000 to 3000 nM

Ask: Can you share its IC50? I mean this compound: C=Cc1cc(=O)n(-c2cccc(OC)c2)c2nc(Nc3ccccc3OC)ncc12 [Example 156]
Reply: > 3000 nM

----------
molecular target: Phospho-EGFR (Tyr1068) in A431 cells (Homo sapiens); construct: endogenous in cells; experiment: HTRF pEGFR/total EGFR in A431 cells with EGF stimulation; conditions: ratio pEGFR/total EGFR, compound 2.5 hours then 100 ng/ml EGF 30 mins
IC50 values by entry

Worked cases, IC50 given:
>>> df
                                   compound  measured_metric     result
0  C#Cc1c(C)c(=O)n([C@H]2CC[C@H](NC(C)=O)CC2)c2nc(Nc3ccc(N4CCN(C)CC4)cc3)ncc12 [Example 102]             IC50  1 to 3 µM
1  C#Cc1cc(=O)n2c3nc(ncc13)Nc1ccc(N3CCN(C)CC3)c(c1)OCCOCC2 [Example 232]             IC50     > 3 µM
2  C#Cc1cc(=O)n(-c2ccc(NC(=O)C3CC3)cc2)c2nc(Nc3ccccc3OC)ncc12 [Example 66]             IC50     > 3 µM

Ask: Request: IC50, test system Phospho-EGFR (Tyr1068) in A431 cells (Homo sapiens), entry C#Cc1cc(=O)n2c3nc(ncc13)Nc1cccc(c1)OCCCC2 [Example 193]
Reply: > 3 µM

Ask: Request: IC50, test system Phospho-EGFR (Tyr1068) in A431 cells (Homo sapiens), entry C#Cc1c(C)c(=O)n(Cc2ccno2)c2nc(Nc3ccc(N4CCN(C)CC4)cc3)ncc12 [Example 113]
Reply: 1 to 3 µM

Ask: Request: IC50, test system Phospho-EGFR (Tyr1068) in A431 cells (Homo sapiens), entry C#Cc1c(C2CC2)c(=O)n(C)c2nc(Nc3ccc(N4CCN(C)CC4)cc3)ncc12 [Example 148]
Reply: > 3 µM

Ask: Request: IC50, test system Phospho-EGFR (Tyr1068) in A431 cells (Homo sapiens), entry C#Cc1c(-c2ccccc2Cl)c(=O)n(C)c2nc(Nc3ccc(N4CCN(C)CC4)cc3OC)ncc12 [Example 127]
Reply: 0.5 to 1 µM

Ask: Request: IC50, test system Phospho-EGFR (Tyr1068) in A431 cells (Homo sapiens), entry C#Cc1cc(=O)n2c3nc(ncc13)Nc1cccc(c1)OCCC2 [Example 186]
Reply: > 3 µM

Ask: Request: IC50, test system Phospho-EGFR (Tyr1068) in A431 cells (Homo sapiens), entry C#Cc1c(C)c(=O)n([C@H]2CC[C@@H](NC(C)=O)CC2)c2nc(Nc3ccc(N4CCN(C)CC4)cc3)ncc12 [Example 103]
Reply: 1 to 3 µM

Ask: Request: IC50, test system Phospho-EGFR (Tyr1068) in A431 cells (Homo sapiens), entry C#Cc1cc(=O)n(C2CC(=O)N(C)C2)c2nc(Nc3ccc(N4CCN(C)CC4)cc3)ncc12 (stereo not shown) [Example 117]
Reply: > 3 µM

Ask: Request: IC50, test system Phospho-EGFR (Tyr1068) in A431 cells (Homo sapiens), entry C#Cc1c(Nc2ccccc2)c(=O)n(C)c2nc(Nc3ccc(N(C)CCN(C)C)cc3)ncc12 [Example 144]
Reply: < 0.5 µM
